- Test system: Pseudomonas aeruginosa
- EXPERIMENT_DESCRIPTION: Antibacterial activity against Pseudomonas aeruginosa ATCC 9027 at 100 ug/ml by cup-plate method
- Format: functional
- REPORTED_CONDITIONS: read-out: IZ
Kindly supply the reported zone of inhibition at 100 µg/mL values for the records listed here.
Numbers only, in mm.

Worked cases, zone of inhibition at 100 µg/mL given:
O=C(c1cccnc1Nc1nc2ccc([N+](=O)[O-])cc2s1)N1CCNC(Cl)C1Cl (stereo not given) :: 6
Cc1ccc2sc(Nc3ncccc3C(=O)N3CCNC(Cl)C3Cl)nc2c1 (stereo not given) :: 6
O=C(c1cccnc1Nc1nc2ccccc2s1)N1CCNC(Cl)C1Cl (stereo not given) :: 4
CC1(C)S[C@@H]2[C@H](NC(=O)[C@H](N)c3ccccc3)C(=O)N2[C@H]1C(=O)O [AMPICILLIN] :: 18

Turning now to a further molecule:
(Q) Identify zone of inhibition at 100 µg/mL associated with the molecule Cc1cccc2sc(Nc3ncccc3C(=O)N3CCN(CCO)CC3)nc12
(A) 6

----------
- System: Bacillus subtilis
- EXPERIMENT_DESCRIPTION: Antibacterial activity against Bacillus subtilis ATCC 6633 at 200 ug/ml by cup-plate method
- Type: functional
- REPORTED_CONDITIONS: read-out: IZ
Binary classification by zone of inhibition at 200 µg/mL, with 7 mm as an inclusive lower bound for MET; all other cases are NOT MET.

Sample answers from the record:
O=C(c1cccnc1Nc1nc2ccccc2s1)N1CCN(CCO)CC1 :: MET
O=C(c1cccnc1Nc1nc2cc(Cl)ccc2s1)N1CCNC(Cl)C1Cl (stereo not given) :: NOT MET
CC1(C)S[C@@H]2[C@H](NC(=O)[C@H](N)c3ccc(O)cc3)C(=O)N2[C@H]1C(=O)O [AMOXICILLIN] :: MET
Cc1ccc2nc(Nc3ncccc3C(=O)N3CCN(CCO)CC3)sc2c1 :: NOT MET
O=C(c1cccnc1Nc1nc2ccc(Cl)cc2s1)N1CCN(CCO)CC1 :: MET
O=C(c1cccnc1Nc1nc2ccc(Cl)cc2s1)N1CCNC(Cl)C1Cl (stereo not given) :: NOT MET
O=C(c1cccnc1Nc1nc2c(Cl)cccc2s1)N1CCNC(Cl)C1Cl (stereo not given) :: NOT MET

(Q) # bool: zone of inhibition at 200 µg/mL of Cc1cccc2sc(Nc3ncccc3C(=O)N3CCN(CCO)CC3)nc12 >= 7 mm
(A) MET

----------
- System: Pseudomonas aeruginosa
- EXPERIMENT_DESCRIPTION: Antibacterial activity against Pseudomonas aeruginosa ATCC 9027 at 100 ug/ml by cup-plate method
- Format: functional
- REPORTED_CONDITIONS: read-out: IZ
Binary classification by zone of inhibition at 100 µg/mL, with 5 mm as an inclusive lower bound for yes; all other cases are no.

Sample answers from the record:
Cc1ccc2nc(Nc3ncccc3C(=O)N3CCNC(Cl)C3Cl)sc2c1 (stereo not drawn) :: no
O=C(c1cccnc1Nc1nc2c(Cl)cccc2s1)N1CCN(CCO)CC1 :: yes
COc1ccc2nc(Nc3ncccc3C(=O)N3CCNC(Cl)C3Cl)sc2c1 (stereo not drawn) :: no
Cc1cccc2sc(Nc3ncccc3C(=O)N3CCNC(Cl)C3Cl)nc12 (stereo not drawn) :: yes
COc1cccc2sc(Nc3ncccc3C(=O)N3CCNC(Cl)C3Cl)nc12 (stereo not drawn) :: yes
O=C(c1cccnc1Nc1nc2cc([N+](=O)[O-])ccc2s1)N1CCN(CCO)CC1 :: yes
O=C(c1cccnc1Nc1nc2ccc(Cl)cc2s1)N1CCN(CCO)CC1 :: yes
COc1ccc2nc(Nc3ncccc3C(=O)N3CCN(CCO)CC3)sc2c1 :: no
COc1cccc2sc(Nc3ncccc3C(=O)N3CCN(CCO)CC3)nc12 :: yes
CC1(C)S[C@@H]2[C@H](NC(=O)[C@H](N)c3ccc(O)cc3)C(=O)N2[C@H]1C(=O)O :: yes

Okay, now this molecule:
(Q) # bool: zone of inhibition at 100 µg/mL of O=C(c1cccnc1Nc1nc2ccc([N+](=O)[O-])cc2s1)N1CCN(CCO)CC1 >= 5 mm
(A) yes
